Assign % max activation to each entry below.
system name: human MC4R receptor (human, UniProt P32245 1-332)
Sequence (P32245 whole entry): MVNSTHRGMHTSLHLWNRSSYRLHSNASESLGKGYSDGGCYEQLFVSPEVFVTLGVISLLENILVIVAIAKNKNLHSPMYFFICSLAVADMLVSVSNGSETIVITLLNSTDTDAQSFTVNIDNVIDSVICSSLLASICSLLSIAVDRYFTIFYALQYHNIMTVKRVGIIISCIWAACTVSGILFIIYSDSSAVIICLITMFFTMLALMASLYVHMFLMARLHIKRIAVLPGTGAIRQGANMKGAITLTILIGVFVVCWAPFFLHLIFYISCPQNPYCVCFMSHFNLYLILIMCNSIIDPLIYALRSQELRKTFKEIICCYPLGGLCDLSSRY
assay overview: cell-based or functional assay
Positions of bridges follow the written chain, without caps; N, C: chain ends. Non-standard residues stand in square brackets, D forms with d. Phe(4-Br) = N[C@@H](Cc1ccc(Br)cc1)C(=O)O; dPhe(4-Br) = N[C@H](Cc1ccc(Br)cc1)C(=O)O; NMeR = CN[C@@H](CCCNC(=N)N)C(=O)O
The number alone won't do; follow it with the unit.

* Ac-RC[dA]R[Phe(4-Br)]R[dW]C-NH2 (disulfide 2-8) [CTX-1215] | 56%
* Ac-RC[dA][NMeR][dPhe(4-Br)]R[dW]C-NH2 (disulfide 2-8; SMILES CC(=O)N[C@@H](CCCNC(=N)N)C(=O)N[C@H]1CSSC[C@@H](C(N)=O)NC(=O)[C@@H](Cc2c[nH]c3ccccc23)NC(=O)[C@H](CCCNC(=N)N)NC(=O)[C@@H](Cc2ccc(Br)cc2)NC(=O)[C@H](CCCNC(=N)N)N(C)C(=O)[C@@H](C)NC1=O) [CTX-1248] | 47%

Request: Let me know recorded % max activation for Ac-RC[dA]P[dPhe(4-Br)]R[dW]C-NH2 (disulfide 2-8; SMILES CC(=O)N[C@@H](CCCNC(=N)N)C(=O)N[C@H]1CSSC[C@@H](C(N)=O)NC(=O)[C@@H](Cc2c[nH]c3ccccc23)NC(=O)[C@H](CCCNC(=N)N)NC(=O)[C@@H](Cc2ccc(Br)cc2)NC(=O)[C@@H]2CCCN2C(=O)[C@@H](C)NC1=O) [CTX-1249] , thanks.
Response: 22%
